This collection of values is drawn from PubChem BioAssay AID1649.

Assay: NPY-Y2 potentiators or agonists, counter-screen for NPY-Y1 potentiator project, cell-based, fluorescence (AID 1649)
Conditions: HEK293-CNG cells, membrane-potential fluorescence (FLIPR), 1536-well; at 3.6 µM
Some of the results follow. Calls of active or inactive are those of the source. Rule as the data show it: active = activation above about 33%; inactive = the rest.
Classes used: active, inactive

INSERT INTO measurements (compound, category_label) VALUES
  ('Cc1ccccc1NCC(=O)N/N=C\c1ccc([N+](=O)[O-])s1', 'inactive'),
  ('CC1=C/C(=N\OS(=O)(=O)c2ccccc2)C=CC1=O', 'active'),
  ('O=C(Nc1ccccc1C(F)(F)F)c1cc(-c2ccc(O)cc2)on1', 'inactive'),
  ('COCCn1nnnc1C(c1ccccc1Cl)N1CCN(c2ccccc2OC)CC1 (stereo unspecified)', 'inactive'),
  ('N#Cc1ccc(C(=O)Nc2nc(-c3cccs3)c(C(=O)C(F)(F)F)s2)cc1', 'inactive'),
  ('O=C(c1cccs1)N1CCN(C(=O)N2CCOCC2)CC1', 'inactive');
